Test system: retinoic acid receptor (RAR)
METHOD NOTES: Activation of retinoic acid response element (RARE) / RAR
Type: cell-based
MEASUREMENT SETUP: FIGS. 1A-B, 7 and 8
EXPERIMENTAL ENDPOINT: activation of retinoic acid receptor (RAR/RARE)

CC1=C(/C=C/C(C)=C/C=C/[C@H](C)CC(=O)O)C(C)(C)CCC1 (stereo in doubt) [(R)-all-trans-13,14-dihydroretinoic acid]	can activate RAR
CC1=C(/C=C/C(C)=C/C=C/[C@@H](C)CC(=O)O)C(C)(C)CCC1 (stereo in doubt) [(S)-all-trans-13,14-dihydroretinoic acid]	can activate RAR
CC1=C(/C=C/C(C)=C/C=C/[C@@H](C)CCO)C(C)(C)CCC1 [(S)-all-trans-13,14-dihydroretinol, (13S)-13,14-Dihydroretinol]	can also activate RAR
CC1=C(/C=C/C(C)=C/C=C/[C@H](C)CCO)C(C)(C)CCC1 [(R)-all-trans-13,14-dihydroretinol, (13R)-13,14-Dihydroretinol]	can also activate RAR
